biological target: Solute carrier family 2, facilitated glucose transporter member 1 (Homo sapiens) (UniProt P11166); assay: ST_JUDE_LEISH: Cytotoxicity at 2uM final concentration against transgenic Leishmania Mexicana promastigotes LmGLUT1 that are glucose transport deficient and complemented with the human glucose transporter GLUT1. Activity is measured by DNA content using SYBR green in vitro; type: functional
Sequence (P11166 whole entry): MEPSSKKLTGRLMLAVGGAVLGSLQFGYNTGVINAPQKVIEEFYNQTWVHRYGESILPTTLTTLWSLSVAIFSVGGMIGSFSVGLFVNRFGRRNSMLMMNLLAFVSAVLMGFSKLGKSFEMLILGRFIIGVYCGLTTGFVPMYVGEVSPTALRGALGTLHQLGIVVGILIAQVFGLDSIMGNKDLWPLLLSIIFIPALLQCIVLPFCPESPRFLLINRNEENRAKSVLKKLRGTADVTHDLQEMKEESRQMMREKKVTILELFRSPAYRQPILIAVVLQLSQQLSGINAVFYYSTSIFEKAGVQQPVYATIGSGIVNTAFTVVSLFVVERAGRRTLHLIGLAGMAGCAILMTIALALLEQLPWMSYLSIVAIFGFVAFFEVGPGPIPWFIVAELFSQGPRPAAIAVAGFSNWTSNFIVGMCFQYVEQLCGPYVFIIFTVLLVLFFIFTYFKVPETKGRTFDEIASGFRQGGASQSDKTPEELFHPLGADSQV
Listing of recorded inhibition by entry.
Readout Kind: inhibition (%)

Compound	Experimental Result
Brc1ccc(C=NNc2nc3ccccc3[nH]2)cc1	6.61
CCN(CCCN1CCCCC1)c1cc(C)nc(Nc2cc(Br)ccc2C)n1	-1.93
CCNC(=O)Nc1ccc(N(C)c2ccnc(Nc3ccc(CS(C)(=O)=O)cc3)n2)cc1	13.5
Nc1nc(N)c2c(CCc3ccc(Cl)c(Cl)c3)cccc2n1	10.7
COc1cc(F)c2ncc(Cl)c([C@@H](O)CN3CCC(NCc4ccc5c(n4)NC(=O)CO5)CC3)c2c1	6.57
CCCCNC(=O)[C@H](CC1CCCCC1)NC(=O)c1ccc(O)c(-c2ccc(Cl)c(Cl)c2)c1	-0.2
O=c1cc(NCCCNCc2cc3c(Cl)cc(Cl)cc3[nH]2)[nH]c2ccccc12	-0.67
CCCC(N)C(=O)NC1CCN(c2c(F)c(N)c3c(=O)c(C(=O)O)cn4c3c2Oc2ccccc2-4)C1 (configuration not stated)	82.5
O=C(/C=C/c1ccc(C(F)(F)F)cc1)NCCCCCN1CCC(c2c[nH]c3ccccc23)CC1	-1.24
CO/N=C(\C)c1ccc2c(c1)CCN(CCC1CCC(NC(=O)c3cccc(-c4noc(C)n4)c3)CC1)CC2 (configuration not stated)	3.41
CCN(CCCNc1nc(=S)[nH]c2cc(OC)c(OC)cc12)c1ccccc1	-0.4
CN(Cc1ccc(-c2ccc(C(F)(F)F)cc2)cc1)C(=O)Cn1c(CCc2cccc(F)c2F)cc(=O)c2ccc(OCC3CCCN3C)cc21 (configuration not stated)	3.87
Cc1cc(-c2ccc(CN3Cc4ccccc4C3)cc2)ccc1S(=O)(=O)NCCN1CCCC1	40.3
Clc1ccccc1/C=C/c1cncnc1Nc1ccc2[nH]c(Cc3ccccc3)nc2c1	7.21
CC(C)C[C@@H](/C=N/N1CCNC1=O)NC(=O)[C@H](CC(C)C)NC(=O)c1ccc(OCCN2CCOCC2)cc1	0.84
Cc1cc2nc(-c3ccc(/C=C/C(=O)NCc4ccc(Cl)c(Cl)c4)cc3)[nH]c2cc1C	8.62
CN(CCCc1c[nH]c2ccccc12)CCC1CCC(NC(=O)/C=C/c2ccc(Cl)c(Cl)c2)CC1 (configuration not stated)	3.61

Provenance of the data: ChEMBL document CHEMBL3433997
